- ASSAY_INFO: AUC (0-t) in rat at 10 mg/kg,po by HPLC-UV analysis
- Type: ADME, organism-based
- Parameters: dose 10 mg/kg, route po
- CONDITIONS: in vivo
MEASUREMENT_KIND: AUC(0-t)
Field: value (include unit after the number)

Indicate its recorded AUC(0-t); the compound in question is `Cc1cc(C)c(CC(=O)Nc2ccc(=O)n(-c3ccccc3)c2)c(C)c1`
332 ng·h/mL

---

- ASSAY_INFO: Cmax in rat at 10 mg/kg,po by HPLC-UV analysis
- Type: ADME, organism-based
- Set-up: dose 10 mg/kg, route po
- CONDITIONS: in vivo
MEASUREMENT_KIND: Cmax (ng/mL)
Numbers only here, please. The scale is ng/mL.

For the compound `Cc1cc(C)c(CC(=O)Nc2ccc(=O)n(-c3ccccc3)c2)c(C)c1` , give its reported Cmax.
68.5

---

Listed here are molecules together with their documented half-life.
- ASSAY_INFO: Metabolic stability in human liver microsomes assessed as half life measured upto 45 mins in presence of NADPH by LC/MS analysis
- Format: ADME, Microsome
Numeric only. Scale: min

smiles_data=Cc1ccc(=O)n(-c2ccccc2)c1 result_value=5.76

Now look at this one.
Give half-life for `Cc1cc(C)c(CC(=O)Nc2ccc(=O)n(-c3ccccc3)c2)c(C)c1`
27.2

---

- ASSAY_INFO: MRT (0 to t) in rat at 10 mg/kg,po by HPLC-UV analysis
- Format: ADME, organism-based
- CONDITIONS: in vivo
MEASUREMENT_KIND: MRT last (h)
Quick reminder: number only, in h, skip the unit.

Give the reported MRT last for this compound. `Cc1cc(C)c(CC(=O)Nc2ccc(=O)n(-c3ccccc3)c2)c(C)c1`
4.84

---

- ASSAY_INFO: Half life in rat at 2 mg/kg,iv by HPLC-UV analysis
- Format: ADME, organism-based
- CONDITIONS: in vivo
MEASUREMENT_KIND: half-life (min)
Number only, in min; omit the unit.

Identify half-life associated with the compound `Cc1cc(C)c(CC(=O)Nc2ccc(=O)n(-c3ccccc3)c2)c(C)c1`
41.6

---

- ASSAY_INFO: AUC (0-t) in rat at 2 mg/kg,iv by HPLC-UV analysis
- Format: ADME, organism-based
- Design: dose 2 mg/kg, route iv
- CONDITIONS: in vivo
MEASUREMENT_KIND: AUC(0-t)

Identify measured AUC(0-t) associated with `Cc1cc(C)c(CC(=O)Nc2ccc(=O)n(-c3ccccc3)c2)c(C)c1`
701 ng·h/mL

---

- ASSAY_INFO: MRT (0 to t) in rat at 2 mg/kg,iv by HPLC-UV analysis
- Type: ADME, organism-based
- CONDITIONS: in vivo
MEASUREMENT_KIND: MRT last (min)
Quick note: give the figure in min, leave out the unit.

Look up and state reported MRT last for `Cc1cc(C)c(CC(=O)Nc2ccc(=O)n(-c3ccccc3)c2)c(C)c1`
51.4

---

- ASSAY_INFO: Cmax in rat at 2 mg/kg,iv by HPLC-UV analysis
- Type: ADME, organism-based
- Design: dose 2 mg/kg, route iv
- CONDITIONS: in vivo
MEASUREMENT_KIND: Cmax
Express the reported value numerically, then name its unit.

Retrieve Cmax measured for `Cc1cc(C)c(CC(=O)Nc2ccc(=O)n(-c3ccccc3)c2)c(C)c1` and print it.
712 ng/mL

---

- ASSAY_INFO: Tmax in rat at 10 mg/kg,po by HPLC-UV analysis
- Type: ADME, organism-based
- CONDITIONS: in vivo
MEASUREMENT_KIND: Tmax (h)
The response must be a number in h with no trailing unit.

Identify Tmax associated with the compound `Cc1cc(C)c(CC(=O)Nc2ccc(=O)n(-c3ccccc3)c2)c(C)c1`
1.01
